Assay: Pharmacokinetics and tissue distribution in BALB/c mice
Format: in vivo
Details: female, mouse, kidneys, iv, 5 mg/kg, read-out: Cl (converted)

compound smiles	clearance / mL/min/kg
O=C1C(NCc2ccc(F)cc2)=CC2=NCCc3c[nH]c1c32	7.27

* * *

Test: Pharmacokinetics and tissue distribution in BALB/c mice
Assay type: in vivo
Details: female, mouse, plasma, iv, 5 mg/kg
reported property: AUC (ng·h/mL)

compound smiles	assay value
O=C1C(NCc2ccc(F)cc2)=CC2=NCCc3c[nH]c1c32	583

* * *

Assay: Pharmacokinetics and tissue distribution in BALB/c mice
Assay type: in vivo
Conditions: female, mouse, lungs, iv, 5 mg/kg, read-out: Cl (converted)
Protocol: To assess the disposition of FBA-TPQ in vivo, pharmacokinetic studies in BALB/c were conducted. […] The average FBA-TPQ concentrations in plasma and tissues at each of the time points following intravenous and intraperitoneal administrations were used for pharmacokinetic analyses using a one- or two-compartmental model, respectively. […] Bioavailability (X) was calculated as X = [AUCip × doseiv]/[AUCiv × doseip].
reported property: clearance (mL/min/kg)

compound smiles	assay value
O=C1C(NCc2ccc(F)cc2)=CC2=NCCc3c[nH]c1c32	20.6
